From: the supplement of paper PMC9112550

System: Escherichia coli TOP10;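 note: peptides expressed intracellularly from a pBAD plasmid library in pooled LB shake-flask culture, induced with 0.3% L-arabinose, DNA abundance read by NGS, three biological replicates, DESeq2 with apeglm shrinkage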
protocolDetails: shrunken log2 fold change of peptide-encoding DNA abundance (4.5 h post-induction vs induction); higher = less antimicrobial activity (less host growth inhibition)
particulars: time post-induction: 4.5 h; library: site-saturation at positions 5, 18, 19, 20
Tag: rule met if measured shrunken log2 fold change is not below -0.2, rule not met if it is.

Check out these entries, answers already filled in.
>  <residueString>
RRIRYRPPRLPRPRPRPCCCPRP

>  <groupLabel>
rule not met

$$$$
>  <residueString>
RRIRARPPRLPRPRPRPVNSPRP

>  <groupLabel>
rule met

$$$$
>  <residueString>
RRIRHRPPRLPRPRPRPIRKPRP

>  <groupLabel>
rule not met

$$$$
>  <residueString>
RRIRQRPPRLPRPRPRPPNIPRP

>  <groupLabel>
rule not met

$$$$
>  <residueString>
RRIRFRPPRLPRPRPRPLGDPRP

>  <groupLabel>
rule met

$$$$
>  <residueString>
RRIRTRPPRLPRPRPRPDDSPRP

>  <groupLabel>
rule not met

$$$$
>  <residueString>
RRIRTRPPRLPRPRPRPMTWPRP

>  <groupLabel>
rule met

$$$$
>  <residueString>
RRIRVRPPRLPRPRPRPLYAPRP

>  <groupLabel>
rule met

$$$$

# input Is shrunken log2 fold change for `RRIRHRPPRLPRPRPRPVMHPRP` at or above -0.2?
# output rule met

# input Kindly determine if shrunken log2 fold change recorded for `RRIRDRPPRLPRPRPRPEHSPRP` is above or exactly -0.2.
# output rule met

# input Please indicate if the recorded shrunken log2 fold change for `RRIRNRPPRLPRPRPRPQPPPRP` meets or exceeds -0.2.
# output rule met

# input Is shrunken log2 fold change for `RRIRYRPPRLPRPRPRPIDHPRP` at or above -0.2?
# output rule met

# input Threshold query (shrunken log2 fold change >= -0.2) on `RRIRNRPPRLPRPRPRPQYFPRP`
# output rule met
